Property: inhibition at 20 µM; scope: individual compounds
subject of test: Rho-A (Homo sapiens (Human), UniProt P61586)
Sequence (P61586 whole entry): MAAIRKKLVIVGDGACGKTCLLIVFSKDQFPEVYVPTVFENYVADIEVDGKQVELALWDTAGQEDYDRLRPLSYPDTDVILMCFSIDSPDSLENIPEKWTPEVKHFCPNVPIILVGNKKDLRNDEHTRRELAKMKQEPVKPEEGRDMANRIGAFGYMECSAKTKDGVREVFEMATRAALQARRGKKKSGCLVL
test details: Rho inhibition assay (labeled GTP)
Type: binding
condition notes: read-out: Rho-A % Inh.

compound: COCCNc1nc(-c2nccn2C)nc2sc(-c3ccccc3)c(-c3ccncc3)c12 [drawing 3914]
inhibition at 20 µM: 76 to 100%
//
compound: CC(C)(O)c1ccc(-c2csc3c(O)nc(-c4ccccn4)nc23)c(F)c1 [drawing 3752]
inhibition at 20 µM: 51 to 75%
//
compound: Cn1ccnc1-c1nc(NCCCO)c2c(-c3ccccc3)c(-c3ccccc3)sc2n1 [drawing 3897]
inhibition at 20 µM: 51 to 75%
//
compound: Oc1nc(-c2ccccn2)nc2c(CC3CCCNC3)csc12 (centres unmarked) [drawing 3807]
inhibition at 20 µM: 76 to 100%
//
compound: COCCNc1nc(-c2cn(C)cn2)nc2sc(C)c(-c3ccccc3)c12 [drawing 3903]
inhibition at 20 µM: 51 to 75%
//
compound: COCCNc1nc(-c2nccn2C)nc2sc(-c3ccccc3Cl)c(-c3ccccc3)c12 [drawing 3899]
inhibition at 20 µM: 25 to 50%
//
compound: COc1ccccc1C1CN(C(=O)c2csc3c(O)nc(-c4ccccn4)nc23)CCO1 (centres unmarked) [drawing 3656]
inhibition at 20 µM: 76 to 100%
//
compound: O=C(c1cc2nc(-c3ccccn3)nc(O)c2s1)N1CCN(c2ccccc2)CC1 [drawing 3713]
inhibition at 20 µM: 76 to 100%

###

Property: inhibition at 20 µM; scope: individual molecules
subject of test: Rac-1 (Homo sapiens (Human))
test details: Rac inhibition assay (labeled GTP)
Type: binding
condition notes: read-out: Rac-1 % Inh.
quantity name: inhibition at 20 µM

molecule: COc1ccccc1C1CN(C(=O)c2csc3c(O)nc(-c4ccccn4)nc23)CCO1 (stereo not shown) [drawing 3656]
recorded value: 76 to 100%

molecule: CN1CCN(c2nc(-c3ccccn3)nc3scc(C(=O)NCCc4cnc(O)nc4)c23)CC1 [drawing 3771]
recorded value: 51 to 75%

molecule: COc1cc(-c2csc3c(O)nc(-c4ccccn4)nc23)cnc1C(F)(F)F [drawing 3756]
recorded value: 51 to 75%

molecule: Oc1nc(-c2ccccn2)nc2c(-c3cc(Cl)cc(Cl)c3)csc12 [drawing 3720]
recorded value: 25 to 50%

###

Property: inhibition at 20 µM; scope: individual molecules
subject of test: UniProt:P01116
test details: Ras GTP binding domain inhibition assay (labeled GTP)
condition notes: 20 μM compound; read-out: % Inhibition at 20 μM KRas wild type

molecule: CC(C)COc1ccc(-c2csc3c(O)nc(-c4ccccn4)nc23)cn1 [drawing 2877]
inhibition at 20 µM: 51 to 75%
--
molecule: O=C(OCCc1ccccc1)N1CCCc2c(O)nc(-c3ccccn3)nc21 [drawing 2653]
inhibition at 20 µM: 51 to 75%
--
molecule: Cc1cnc(-c2ccccn2)nc1NC(=O)COCc1ccncc1
inhibition at 20 µM: 51 to 75%
--
molecule: O=C(c1csc2c(O)nc(-c3ccccn3)nc12)N(CCO)CCOCCO [drawing 2687]
inhibition at 20 µM: 25 to 50%
--
molecule: Oc1nc(-c2ccccn2)nc2c(-c3ccccc3C(F)F)csc12 [drawing 2883]
inhibition at 20 µM: 25 to 50%
--
molecule: Oc1nc(-c2ccccn2)nc2scc(Br)c12 [drawing 2703]
inhibition at 20 µM: 51 to 75%
--
molecule: CN1CCN(c2nc(-c3ccccn3)nc3scc(C(=O)NCCc4cnc(O)nc4)c23)CC1 [drawing 2899]
inhibition at 20 µM: 1 to 25%
--
molecule: COCCCCNC(=O)c1csc2nc(-c3ccccn3)nc(N3CCN(C)CC3)c12 [drawing 2739]
inhibition at 20 µM: 1 to 25%
--
molecule: COc1ccc(CCNC(=O)c2csc3nc(-c4ccccn4)nc(N4CCN(C)CC4)c23)cn1
inhibition at 20 µM: 25 to 50%

Data origin: patent US10940139B2
